test: Counterscreen qHTS for Inhibitors of Tau Fibril Formation, Fluorescence Polarization; settings: tau K18 P301L (four-repeat tau fragment) Alexa594 fluorescence, heparin fibrillization; series mostly up to 57.7 µM; also: nearly all actives have a fitted effect of over 55% in size
In all, about 280,000 compounds went through this assay and about 2,600 (0.93%) were called active. About 8% were inconclusive and are not listed. Calls follow the shape of the dose curve; as a rule, active = well fitted curve in the direction sought with a large enough effect; inconclusive = small, poorly fitted or top-dose-only effect; inactive = flat fitted curve, though single readings scatter. The sample as a whole holds a higher share of actives than the screen did.
Lab note: assign the record to one of Y = active, N = inactive

What classification did `Cc1ccc2nc(-c3ccc(O)cc3)c(Nc3ccc4c(c3)OCO4)n2c1` end up with in this test?
Y

What classification did `Cc1ccc(S(=O)(=O)NCc2nc3nc(C)cc(C)n3n2)cc1` end up with in this test?
N

What classification did O=C(CC(c1cccs1)N1Cc2ccccc2C1=O)Nc1ccc(F)cc1F (stereo unspecified) end up with in this test?
N

What classification did `Cc1ccc2nc(-c3cccnc3)c(NC3CCCC3)n2c1` end up with in this test?
N

What classification did `Fc1ccc(CSc2nc(NCc3ccccc3)c3ccccc3n2)cc1` end up with in this test?
N

What classification did `CCc1ccc(NC(=O)c2cnc3c(-c4ccccc4)c(C)nn3c2C)cc1` end up with in this test?
N
